I'd appreciate it if you could supply EC50 values for the items below.
# System: HIV-1 HBX2 (wild type)
# experiment: High throughput cytopathic effect assay in MT-4 cells, HIV-1 wild type
# Type: cell-based
# settings: Human immunodeficiency virus 1, MT4, 120 h; MT-4 cells, HIV-1 wild type, 5 days, CPE protection (Cell TiterGlo); read-out: MT4 EC50 (nM) against w.t.
A complete answer gives the number and then names the unit.

[Q] State the recorded EC50 for this entry: O=C1Nc2ccc(Cl)cc2[C@@](C#CC2CC2)(C(F)(F)F)O1 [Efavirenz, efavirenz, reference compound]
[A] 1.3 nM

[Q] Please answer likewise for "Cc1cc(/C=C/C#N)cc(C)c1-c1cccc2c(N)nc(Nc3cnc(C#N)cn3)cc12"
[A] 14.4 nM

[Q] Please answer likewise for "Cc1cc(/C=C/C#N)cc(C)c1-c1cccc2c(N)nc(Nc3ccc(C#N)nn3)cc12"
[A] 17 nM

[Q] Please answer likewise for "Cc1cc(/C=C/C#N)cc(C)c1-c1cccc2c(N)nc(Nc3ncc(C#N)cn3)cc12"
[A] 6.4 nM

[Q] Please answer likewise for Cc1ccnc2c1NC(=O)c1cccnc1N2C1CC1 [Nevirapine, nevirapine, reference compound]
[A] 65 nM

[Q] Please answer likewise for Cc1cc(/C=C/C#N)cc(C)c1Nc1ccnc(Nc2ccc(C#N)cc2)n1 [Rilpivirine, rilpivirine, reference compound]
[A] 0.9 nM

[Q] Please answer likewise for "Cc1cc(/C=C/C#N)cc(C)c1-c1cccc2cnc(Nc3ccc(C#N)cn3)cc12"
[A] 4.2 nM

[Q] Please answer likewise for "Cc1cc(/C=C/C#N)cc(C)c1-c1cccc2cnc(Nc3ccc(C#N)cc3)cc12"
[A] 12.9 nM

[Q] Please answer likewise for "Cc1cc(/C=C/C#N)cc(C)c1-c1cccc2c(N)nc(Nc3ccc(C#N)cn3)cc12"
[A] 2.8 nM

* * *

# Test system: HIV-1 reverse transcriptase mutant Y181C
# experiment: High throughput cytopathic effect assay in MT-4 cells, HIV-1 RT mutant Y181C
# Type: cell-based
# settings: fold change of EC50, Y181C versus w.t. assay 2
I'd appreciate it if you could supply FC against mutant Y181C values for the items below.
I only need the number, thanks.

[Q] State the recorded FC against mutant Y181C for this entry: Cc1cc(/C=C/C#N)cc(C)c1Nc1ccnc(Nc2ccc(C#N)cc2)n1 [Rilpivirine, rilpivirine, reference compound]
[A] 3.1

[Q] Please answer likewise for "Cc1cc(/C=C/C#N)cc(C)c1-c1cccc2c(N)nc(Nc3cnc(C#N)cn3)cc12"
[A] 5.4

[Q] Please answer likewise for "Cc1cc(/C=C/C#N)cc(C)c1-c1cccc2c(N)nc(Nc3ncc(C#N)cn3)cc12"
[A] 11.5

[Q] Please answer likewise for "Cc1cc(/C=C/C#N)cc(C)c1-c1cccc2c(N)nc(Nc3ccc(C#N)cn3)cc12"
[A] 3.4

[Q] Please answer likewise for "Cc1cc(/C=C/C#N)cc(C)c1-c1cccc2c(N)nc(Nc3ccc(C#N)nn3)cc12"
[A] 7.7

[Q] Please answer likewise for "Cc1cc(/C=C/C#N)cc(C)c1-c1cccc2cnc(Nc3ccc(C#N)cn3)cc12"
[A] 2.5

[Q] Please answer likewise for O=C1Nc2ccc(Cl)cc2[C@@](C#CC2CC2)(C(F)(F)F)O1 [Efavirenz, efavirenz, reference compound]
[A] 2.3

* * *

# Test system: HIV-1 reverse transcriptase mutant K103N
# experiment: High throughput cytopathic effect assay in MT-4 cells, HIV-1 RT mutant K103N
# Assay type: cell-based
# settings: Human immunodeficiency virus 1, MT4, read-out: MT4 EC50 (nM) against K103N
I'd appreciate it if you could supply EC50 values for the items below.
The figure you give is taken to be in nM; do not add the unit.

[Q] State the recorded EC50 for this entry: Cc1cc(/C=C/C#N)cc(C)c1-c1cccc2c(N)nc(Nc3ccc(C#N)cn3)cc12 [Compound 4]
[A] 3.7

[Q] Please answer likewise for Cc1cc(/C=C/C#N)cc(C)c1-c1cccc2cnc(Nc3ccc(C#N)cn3)cc12 [Compound 5]
[A] 4.7

[Q] Please answer likewise for Cc1cc(/C=C/C#N)cc(C)c1-c1cccc2c(N)nc(Nc3cnc(C#N)cn3)cc12 [Compound 2]
[A] 29.7
